# Species: Rattus norvegicus
# Experiment: DrugMatrix - Regimen: Daily Repeat
# Format: toxicity, organism-based, Sprague-Dawley
# Set-up: regimen Daily Repeat, gender Male, age 6-8 weeks
# Test settings: in vivo, ip, 0 mg/kg, 120 h, tissue Blood, route intraperitoneal, dose level Control, time 5 day, vehicle 100 % SALINE
Assay endpoint: ABSOLUTE BASOPHIL (cells/µL)
I only need the number, in cells/µL, no unit after it.

The compound listed as CCN[C@@H]1C[C@H](N)[C@@H](O[C@H]2OC(CN)=CC[C@H]2N)[C@H](O)[C@H]1O[C@H]1OC[C@](C)(O)[C@H](NC)[C@H]1O shows ABSOLUTE BASOPHIL equal to 32
